# assay.protocol: viability loss with induced miR-34 in A549 – imaging, A549 dox-inducible miR-34, nuclei and caspase counts, primary screen (AID 1347080)
# test.context: A549 miR-34 inducible, Hoechst nuclei count, 48 h; measured here: total cells with miR-34 induction; stronger effect = lower value
Criterion: cell count strictly less than 8000. Met: 1.0. Not met: 0.0.

is_below(cell count, 8000) for CCCCC[C@H](O)C/C=C1/C(=O)C=C[C@@H]1C/C=C\CCCC(=O)O ?
1.0

Now consider a different molecule.
Consider the molecule CCCCC(=O)N(Cc1ccc(-c2ccccc2-c2nn[nH]n2)cc1)C(C(=O)O)C(C)C (stereo not given) . Is its cell count strictly less than 8000?
0.0

###

# assay.protocol: growth inhibition, single agent and combos, cell-based, chromothripsis tumors, cisplatin or BGB combos (AID 1671450);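 note: cells exposed to compound for four days; 0% = vehicle DMSO and 100% = cell killing by high DMSO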
# test.context: HDN33 neuroblastoma cells, measured here: with BGB IC20 combination, at 0.5 µM, stronger effect = higher value
Non-standard residues stand in square brackets, D forms with d. Residues, ends and D or L forms follow the SMILES beside them. Dolaproine = CO[C@@H]([C@@H]1CCCN1)[C@@H](C)C(=O)O; Dil = CC[C@H](C)[C@H](NC)[C@@H](CC(=O)O)OC; NMeV = CN[C@H](C(=O)O)C(C)C
Here the recorded inhibition is given for each entry.
Kindly provide the numeric value in % only, without the unit symbol.

Past entries and their recorded results:
Data request, read-out inhibition, for COc1cccc2c1C(=O)c1c(O)c3c(c(O)c1C2=O)CC(O)(C(=O)CO)CC3OC1CC(N)C(OC2CCCCO2)C(C)O1 (centres undefined)
21.1

Same thing, different molecule: COc1ccccc1S(=O)(=O)Nc1ccc2c(c1)CN(C)C(=O)N2
-28.2

Next up: O=C(CCSc1nc2ccccc2c(=O)[nH]1)NC1CCC(c2nnc(-c3ccccc3)o2)CC1 (centres undefined)
8.27

Item: Nc1ncn(C2OC(CO)C(O)C2O)c(=O)n1 (centres undefined)
-3.13

Try this molecule next: CC[C@H](C)[C@@H]([C@@H](CC(=O)N1CCC[C@H]1[C@H](OC)[C@@H](C)C(=O)N[C@@H](Cc1ccccc1)C(=O)O)OC)N(C)C(=O)[C@@H](NC(=O)[C@@H](NC)C(C)C)C(C)C (H-[NMeV]V[Dil][Dolaproine]F-OH)
62.6

For CC1CNC(=O)NC1=O (centres undefined) then?
-4.75

Please give the result for CC(C)c1ccc(-c2cc(=O)c3ccccc3o2)cc1 too.
-6.46

What do we get for Nc1ccccc1NC(=O)c1cnccn1 ?
-34.1

With those in mind, consider the next molecule.
Quick one: inhibition of O=c1[nH]c(=O)n(C2CC(O)C(CO)O2)cc1I (centres undefined) ?
-28.5

###

# assay.protocol: viability loss with induced miR-34 in A549 – imaging, A549 dox-inducible miR-34, nuclei and caspase counts, primary screen (AID 1347080)
# test.context: A549 miR-34 inducible, Hoechst nuclei count, 48 h; stronger effect = lower value; cell number ratio, induced over uninduced
quantity: fold change
Answer with a bare number; do not write a unit.

Use the examples below as a reference point.
May I ask what fold change has been recorded for O=C(O)CCCNC(=O)NC1CCCCC1 ?
0.89

What do we get for Cc1csc2ncnc(-c3cccc4cccnc34)c12 ?
0.931

Also check CCCCC[C@H](O)/C=C/[C@@H]1[C@H]2C/C(=C/CCCC(=O)O)O[C@H]2C[C@H]1O
1.05

Note, next up: O=C(O)c1cc2cccc([N+](=O)[O-])c2[nH]1
0.946

How about CCCCCCCCCCC/C=C\C/C=C\CCCC(=O)O ?
0.918

// next record NC1(C(=O)O)CCc2cc(C(=O)O)ccc21 (stereo unspecified)
0.993

More entries:
What value of fold change has been recorded for this entry: CC(=O)N[C@H](C(=O)O)C(C)(C)SN=O
1.07

Now consider Oc1ccc(OC2CCCCO2)cc1 (stereo unspecified) .
0.945

And then CCCCC/C=C\CC1OC1CCCCCCCC(=O)O (stereo unspecified) , what is it?
0.903

Could you do the same for NC(N)=NCCNS(=O)(=O)c1cccc2cnccc12 , please?
0.914

Likewise for Cc1ccc([N+](=O)[O-])cc1S(=O)(=O)N(C)N=Cc1cnc2ccc(Br)cn12 ?
0.935

Note, next up: O=C(OC1C(Oc2ccccc2COC(=O)C2(O)C=CCCC2=O)OC(CO)C(O)C1O)c1ccccc1 (stereo unspecified)
0.897
